# Run Description: physchem
# Format: physicochemical
# Reported Conditions: 25 °C, pH 11.4, aqueous buffer
Where a name gives a salt, the structure may show the parent alone.
Reported Property: solubility (µg/mL)
Give bare numbers, in µg/mL.

q: Which solubility is reported for this compound? O=C1CN2Cc3c(ccc(Cl)c3Cl)N=C2N1 [anagrelide HCl]
a: 992

* * *

# Run Description: physchem
# Assay type: physicochemical
# Reported Conditions: 25 °C, pH 0.96, simulated gastric fluid
Where a name gives a salt, the structure may show the parent alone.
Reported Property: solubility (mg/mL)
Give bare numbers, in mg/mL.

q: Which solubility is reported for this molecule? O=C1CN2Cc3c(ccc(Cl)c3Cl)N=C2N1 [anagrelide HCl]
a: 0.236
